pIC50: −log10 of the molar value.
Below are pIC50 measurements against Human Factor XIIa (Homo sapiens, UniProt P00748) drawn from the literature.

Compound: Cc1cc(N2CCn3c(nnc3C(F)(F)F)C2C)ncc1CNc1cccc2c(N)nccc12 (single isomer, unassigned)
Measurement Type: pIC50
Result: 5.00 to 5.52
--
Compound: Cn1ccnc1COc1cc(CNc2ccc3c(N)nccc3c2)ccn1
Measurement Type: pIC50
Result: 5.00 to 5.52
--
Compound: Nc1nccc2c(NCC34CC(C(=O)N5CCn6ccnc6C5)(C3)C4)cccc12
Measurement Type: pIC50
Result: 5.00 to 5.52
--
Compound: Nc1nccc2c(NCC34CC(COc5ccn6cnnc6c5)(CO3)C4)cccc12
Measurement Type: pIC50
Result: 7.00 to 8.00
--
Compound: COc1ccc(CNC(=O)c2nn(-c3cccc(Cl)c3)c3c2CCN(c2ccc4c(c2)CN(CCO)CC4)C3=O)cn1
Measurement Type: pIC50
Result: 7.00 to 8.00
--
Compound: CC(=O)N1CC2CC1CC2COc1cc(CNc2ccc3c(N)nccc3c2)ccn1 (stereo not shown)
Measurement Type: pIC50
Result: 5.52 to 6.00
--
Compound: CC1c2nccn2CCN1c1ccc(CNc2cccc3c(N)nccc23)cn1 (stereo not shown)
Measurement Type: pIC50
Result: 6.00 to 6.52
--
Compound: CN1CCc2ncc(N3CCc4c(C(=O)NCC5CC5)nn(-c5cccc(Cl)c5)c4C3=O)cc2C1=O
Measurement Type: pIC50
Result: 5.52 to 6.00

Which pIC50 is listed for `Nc1ncc(Cl)c2cc(NCc3ccc(NCCc4nccn4C(F)F)nc3)ccc12` ?
4.40 to 5.00

// next record Cc1cnc2n1CCC(COc1cc(CNc3cccc4c(N)nccc34)ccn1)C2 (single isomer, unassigned)
6.52 to 7.00

// next record `Cc1cc2c(NCC34CC(COc5ccn6ccnc6c5)(CO3)C4)ccnc2[nH]1`
5.00 to 5.52

// next record `Cc1ccncc1CNC(=O)c1nn(-c2cccc(Cl)c2)c2c1CCN(c1ccc3c(c1)C(=O)NCC3)C2=O`
6.00 to 6.52

// next record `Cn1ccc2cc(OCC34COC(CNc5cccc6c(N)nccc56)(C3)C4)ccc2c1=O`
6.00 to 6.52

// next record `Cc1cn2ccnc2cc1OCC12CCOC(CNc3cccc4c(N)nccc34)(C1)C2`
6.52 to 7.00

// next record `CN1CCC(CCc2cccc(CNc3ccc4c(N)nccc4c3)c2)CC1`
6.00 to 6.52

// next record `Nc1nccc2c(NCC34CC(COc5ccn6cnnc6c5)(C3)C4)cccc12`
6.00 to 6.52

----------
Below are IC50 measurements against Human Factor XIIa (Homo sapiens, UniProt P00748) drawn from the literature.

Which IC50 is listed for `CC(C)(O)[C@@H]1CCN(c2ccc(CNc3cccc4c(N)nccc34)cn2)C1` ?
3000 to 10000 nM

// next record `Nc1nccc2cc(NCc3ccc(COC4CCN(CC(F)F)CC4)cc3)ccc12`
1000 to 3000 nM

// next record `Cc1cc2c(NCC34CC(COc5ccn6ccnc6c5)(C3)C4)ccnc2[nH]1`
1000 to 3000 nM

// next record `Cc1cc(CNC(=O)CN2CCOc3ccc(N4CCc5c(C(=O)NCc6cc(C)n(C)n6)nn(-c6cccc(Cl)c6)c5C4=O)cc3C2=O)nn1C`
10 to 100 nM

// next record `CN1CCC(COc2cc(CNc3ccnc4c(N)nccc34)ccn2)CC1`
3000 to 10000 nM

// next record `Cc1cn2cc(OCC34COC(CNc5cccc6c(N)nccc56)(C3)C4)ccc2n1`
100 to 300 nM

// next record `CN1CCc2ccc(N3CCc4c(C(=O)NCc5ccoc5)nn(-c5cccc(Cl)c5)c4C3=O)cc2C1`
100 to 300 nM

// next record `Nc1nccc2cc(NCc3cccc(CN4CCCC4)c3)ccc12`
10000 to 40000 nM
